The values you see were collected from patent US11479551B2.

target: PRMT5/MEP50 complex (Homo sapiens (Human), UniProt O14744); experiment: PRMT5:MEP50 FlashPlate Assay (histone H4 peptide substrate, plus and minus MTA); format: biochemical; conditions: in the absence of MTA, read-out: IC50
Sequence (O14744 2-637): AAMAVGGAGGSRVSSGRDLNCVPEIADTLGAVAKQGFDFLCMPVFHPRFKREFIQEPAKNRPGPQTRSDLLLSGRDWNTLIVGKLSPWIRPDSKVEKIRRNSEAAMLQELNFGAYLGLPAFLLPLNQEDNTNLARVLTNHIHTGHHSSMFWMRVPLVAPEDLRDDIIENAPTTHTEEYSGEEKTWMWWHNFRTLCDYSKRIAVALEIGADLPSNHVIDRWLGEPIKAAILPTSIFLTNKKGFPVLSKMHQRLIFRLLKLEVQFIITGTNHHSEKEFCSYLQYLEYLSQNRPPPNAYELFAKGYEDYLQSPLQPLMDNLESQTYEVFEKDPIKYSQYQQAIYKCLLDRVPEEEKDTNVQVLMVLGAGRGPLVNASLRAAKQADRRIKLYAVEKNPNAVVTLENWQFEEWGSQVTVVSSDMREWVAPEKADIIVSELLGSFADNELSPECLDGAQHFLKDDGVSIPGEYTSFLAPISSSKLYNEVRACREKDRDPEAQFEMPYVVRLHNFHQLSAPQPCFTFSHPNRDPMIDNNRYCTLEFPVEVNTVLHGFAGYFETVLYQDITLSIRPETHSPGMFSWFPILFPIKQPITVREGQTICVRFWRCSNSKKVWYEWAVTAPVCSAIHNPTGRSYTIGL
Sequence (Q9BQA1 2-342 partner): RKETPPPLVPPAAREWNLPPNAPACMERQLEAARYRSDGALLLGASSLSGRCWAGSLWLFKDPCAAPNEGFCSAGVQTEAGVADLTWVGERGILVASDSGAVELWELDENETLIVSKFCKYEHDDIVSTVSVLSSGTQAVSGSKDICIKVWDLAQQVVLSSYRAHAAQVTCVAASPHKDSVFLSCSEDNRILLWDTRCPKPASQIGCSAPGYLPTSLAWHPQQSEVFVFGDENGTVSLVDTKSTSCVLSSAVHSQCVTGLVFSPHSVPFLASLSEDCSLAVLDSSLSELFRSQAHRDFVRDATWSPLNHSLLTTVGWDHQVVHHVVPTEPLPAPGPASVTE
VALUE KIND: IC50 (µM)

Worked examples, 5 compounds total:
[
  {
    "COMPOUND": "CCCn1cc(-c2ccc3c(=O)[nH]nc(CN)c3c2)cn1 [Example 3-23]",
    "TARGET OR TEST SYSTEM": "PRMT5/MEP50 complex (Homo sapiens (Human), UniProt O14744)",
    "VALUE KIND": "IC50",
    "RECORDED MEASUREMENT": 6.43
  },
  {
    "COMPOUND": "CC(C)Oc1cncc(-c2ccc3c(=O)[nH]nc(CN)c3c2)c1 [Example 3-52]",
    "TARGET OR TEST SYSTEM": "PRMT5/MEP50 complex (Homo sapiens (Human), UniProt O14744)",
    "VALUE KIND": "IC50",
    "RECORDED MEASUREMENT": 3
  },
  {
    "COMPOUND": "NCc1n[nH]c(=O)c2ccc(-c3cncc(Oc4cccc(F)c4)c3)cc12 [Example 4-65]",
    "TARGET OR TEST SYSTEM": "PRMT5/MEP50 complex (Homo sapiens (Human), UniProt O14744)",
    "VALUE KIND": "IC50",
    "RECORDED MEASUREMENT": 0.517
  },
  {
    "COMPOUND": "NCc1n[nH]c(=O)c2ccc(-c3cncc(Oc4ccccc4Cl)c3)cc12 [Example 4-71]",
    "TARGET OR TEST SYSTEM": "PRMT5/MEP50 complex (Homo sapiens (Human), UniProt O14744)",
    "VALUE KIND": "IC50",
    "RECORDED MEASUREMENT": 0.116
  },
  {
    "COMPOUND": "N#Cc1cccc(Oc2cncc(-c3ccc4c(=O)[nH]nc(CN)c4c3)c2)c1 [Example 4-69]",
    "TARGET OR TEST SYSTEM": "PRMT5/MEP50 complex (Homo sapiens (Human), UniProt O14744)",
    "VALUE KIND": "IC50",
    "RECORDED MEASUREMENT": 0.624
  }
]

P = COc1ccccc1Oc1cncc(-c2ccc3c(=O)[nH]nc(CN)c3c2)c1 [Example 4-78]
Q = NCc1n[nH]c(=O)c2ccc(-c3cncc(Oc4cccnc4)c3)cc12 [Example 4-62]
Q: Given P and given Q , which shows the smaller recorded IC50? Answer format: the label of the selected item.
A: P
